assay.name: Ratio of drug level in ICR mouse brain to plasma at 50 mg/kg, ip after 24 hrs by LC-MS/MS analysis
Type: ADME, organism-based
condition.notes: brain and plasma, read-out: BPR
observation.type: Kp at 24 h

Ask: Entry under review: `CCNC1=N[C@@H]2[C@@H](O)[C@H](O)[C@@H](CO)O[C@@H]2S1` . Reported Kp at 24 h?
Result: 0.07

* * *

assay.name: Tmax in ICR mouse plasma at 20 mg/kg, ip after 24 hrs by LC-MS/MS analysis
Format: ADME, organism-based
observation.type: Tmax (min)
Give the value in min but do not write min after it.

Ask: Entry under review: CC(=O)Nc1ncc(CN2CCN(CC(=O)Nc3ccc(Cl)cc3)CC2C)s1 (stereo unspecified) . Reported Tmax?
Result: 21.6

* * *

assay.name: AUClast in ICR mouse plasma at 20 mg/kg, ip after 24 hrs by LC-MS/MS analysis
Type: ADME, organism-based
Parameters: dose 20 mg/kg, time 24 hrs, route ip
observation.type: AUC(0-t) at 24 h (ng·h/mL)
Give the value in ng·h/mL but do not write ng·h/mL after it.

Ask: Entry under review: CC(=O)Nc1ncc(CN2CCN(CC(=O)Nc3ccc(Cl)cc3)CC2C)s1 (stereo unspecified) . Reported AUC(0-t) at 24 h?
Result: 2960

* * *

assay.name: Cytotoxicity against mouse HT-22 cells assessed as cell viability at 10 uM after 18 hrs by MTT assay
Format: toxicity, cell-based
condition.notes: read-out: Activity
observation.type: viability at 18 h, 10 µM

Below, 3 compounds whose answers are already recorded.
{"columns": ["compound", "test.value"],
 "data": [
  ["CC(=O)N[C@H]1/C(=N\\OC(=O)Nc2ccccc2)O[C@H](CO)[C@@H](O)[C@@H]1O", "102%"],
  ["CC(=O)Nc1ncc(CN2CCN(CC(=O)Nc3ccc(N4CCN(C(C)=O)CC4)cc3)CC2C)s1 (stereo not given)", "94.4%"],
  ["CC(=O)Nc1ncc(CN2CCCC(C(=O)Nc3ccc(F)cc3)C2)s1 (stereo not given)", "120%"]
]}

Ask: Entry under review: `CC(=O)Nc1ncc(CN2CCN(CC(=O)Nc3ccc(Cc4ccccc4)cc3)CC2)s1` . Reported viability at 18 h, 10 µM?
Result: 140%

Ask: Entry under review: CC(=O)Nc1ncc(CN2CCN(CC(=O)Nc3ccc(Cl)cc3)CC2C)s1 (stereo not given) . Reported viability at 18 h, 10 µM?
Result: 111%

Ask: Entry under review: CC(=O)Nc1ncc(CN2CCN(CC(=O)NC3CCCCC3)CC2C)s1 (stereo not given) . Reported viability at 18 h, 10 µM?
Result: 123%

Ask: Entry under review: CC(=O)Nc1ncc(CN2CCN(CC(=O)Nc3ccccc3)CC2C)s1 (stereo not given) . Reported viability at 18 h, 10 µM?
Result: 98.6%

Ask: Entry under review: `CCNC1=N[C@@H]2[C@@H](O)[C@H](O)[C@@H](CO)O[C@@H]2S1` . Reported viability at 18 h, 10 µM?
Result: 95.9%

Ask: Entry under review: CC(=O)Nc1ncc(CN2CCN(CC(=O)Nc3ccc(Cc4ccccc4)cc3)CC2C)s1 (stereo not given) . Reported viability at 18 h, 10 µM?
Result: 136%

Ask: Entry under review: `COc1ccc(CNC(=O)C=C2CCN(Cc3cnc(NC(C)=O)s3)CC2)cc1` . Reported viability at 18 h, 10 µM?
Result: 109%
